- Test system: 439559-082-T-J2-PDC spheroid viability;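 note: spheroids exposed to compounds for seven days before readout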
- ASSAY_OVERVIEW: Anticancer human tumor 439559-082-T-J2-PDC patient-derived colon adenocarcinoma cell line growth inhibition [POLQ]
- CONDITION_NOTES: curve of first compound; second compound 3.16 µM; spheroids with HUVEC and MSC
pIC50: −log10 of the molar value.

{"COMPOUND": "COc1ccc([C@@H](O)c2cc(-c3ncnc4cc(N5CCOCC5)ccc34)c(F)cc2Cl)nn1 + COC1C(OC(N)=O)C(O)C(Oc2ccc3c(O)c(NC(=O)c4ccc(O)c(CC=C(C)C)c4)c(=O)oc3c2C)OC1(C)C", "pIC50": "< 5.00"}
{"COMPOUND": "O=C(Nc1ccc(O)c(NS(=O)(=O)c2ccc(F)cc2)c1)c1ccc(-c2ccccc2)cc1 + Cc1cccc(N(C)C(=O)C2C(O)CCN2c2nc(C)cc(C(F)(F)F)c2C#N)c1", "pIC50": "< 5.00"}
{"COMPOUND": "CC[C@@]1(O)C(=O)OCc2c1cc1n(c2=O)Cc2cc3c(CN(C)C)c(O)ccc3nc2-1 + COC1C(OC(N)=O)C(O)C(Oc2ccc3c(O)c(NC(=O)c4ccc(O)c(CC=C(C)C)c4)c(=O)oc3c2C)OC1(C)C", "pIC50": "< 7.00"}
{"COMPOUND": "CNCc1ccc(-c2[nH]c3cc(F)cc4c3c2CCNC4=O)cc1 + Cc1cccc(N(C)C(=O)C2C(O)CCN2c2nc(C)cc(C(F)(F)F)c2C#N)c1", "pIC50": "< 5.00"}
{"COMPOUND": "CNCc1ccc(-c2[nH]c3cc(F)cc4c3c2CCNC4=O)cc1 + COC1C(OC(N)=O)C(O)C(Oc2ccc3c(O)c(NC(=O)c4ccc(O)c(CC=C(C)C)c4)c(=O)oc3c2C)OC1(C)C", "pIC50": "< 5.00"}
{"COMPOUND": "Cn1ncnc1[C@H]1c2n[nH]c(=O)c3cc(F)cc(c23)N[C@@H]1c1ccc(F)cc1 + Nc1ccc(C#CCN(C(=O)Cc2ncc(C(F)(F)F)cc2C(F)(F)F)c2ccc(F)cc2)nn1", "pIC50": "< 7.00"}
{"COMPOUND": "O=c1[nH]cc(F)c(=O)[nH]1 + COC1C(OC(N)=O)C(O)C(Oc2ccc3c(O)c(NC(=O)c4ccc(O)c(CC=C(C)C)c4)c(=O)oc3c2C)OC1(C)C", "pIC50": "< 5.00"}
{"COMPOUND": "CC(=O)O[C@H]1C(=O)[C@@]2(C)[C@H]([C@H](OC(=O)c3ccccc3)[C@]3(O)C[C@H](OC(=O)[C@H](O)[C@@H](NC(=O)c4ccccc4)c4ccccc4)C(C)=C1C3(C)C)[C@]1(OC(C)=O)CO[C@@H]1C[C@@H]2O + COC1C(OC(N)=O)C(O)C(Oc2ccc3c(O)c(NC(=O)c4ccc(O)c(CC=C(C)C)c4)c(=O)oc3c2C)OC1(C)C", "pIC50": 5.89}
{"COMPOUND": "CC1COCCN1c1cc(C2(S(C)(=N)=O)CC2)nc(-c2ccnc3[nH]ccc23)n1 (stereo not given) + COC1C(OC(N)=O)C(O)C(Oc2ccc3c(O)c(NC(=O)c4ccc(O)c(CC=C(C)C)c4)c(=O)oc3c2C)OC1(C)C", "pIC50": "< 5.00"}
{"COMPOUND": "COc1cc(C2c3cc4c(cc3C(OC3OC5COC(C)OC5C(O)C3O)C3COC(=O)C23)OCO4)cc(OC)c1O (stereo not given) + COC1C(OC(N)=O)C(O)C(Oc2ccc3c(O)c(NC(=O)c4ccc(O)c(CC=C(C)C)c4)c(=O)oc3c2C)OC1(C)C", "pIC50": "< 5.00"}
